Value source: patent US10550102B2

systemUnderTest: soluble guanylate cyclase (human GUCYA3 and GUCYB3) overexpressed in CHO cells (Homo sapiens (Human), UniProt Q02108+Q02153)
Sequence (Q02108 whole entry partner): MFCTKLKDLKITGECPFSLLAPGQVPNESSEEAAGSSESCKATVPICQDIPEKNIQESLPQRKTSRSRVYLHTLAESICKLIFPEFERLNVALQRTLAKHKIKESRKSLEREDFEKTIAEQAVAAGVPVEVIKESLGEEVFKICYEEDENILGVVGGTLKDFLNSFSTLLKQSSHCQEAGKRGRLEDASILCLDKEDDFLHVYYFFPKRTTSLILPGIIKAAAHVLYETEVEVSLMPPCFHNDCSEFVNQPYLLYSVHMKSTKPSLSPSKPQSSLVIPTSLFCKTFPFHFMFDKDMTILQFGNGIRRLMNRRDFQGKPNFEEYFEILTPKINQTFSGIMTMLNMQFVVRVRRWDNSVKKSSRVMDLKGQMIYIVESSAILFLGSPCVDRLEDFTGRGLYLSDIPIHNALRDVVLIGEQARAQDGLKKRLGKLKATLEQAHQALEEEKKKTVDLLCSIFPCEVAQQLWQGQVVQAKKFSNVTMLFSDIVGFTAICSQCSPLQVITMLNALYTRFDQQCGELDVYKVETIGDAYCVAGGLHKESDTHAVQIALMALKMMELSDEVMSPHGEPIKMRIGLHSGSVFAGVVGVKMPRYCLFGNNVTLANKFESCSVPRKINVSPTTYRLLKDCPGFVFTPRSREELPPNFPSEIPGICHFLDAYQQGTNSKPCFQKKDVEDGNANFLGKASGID
Sequence (Q02153 whole entry): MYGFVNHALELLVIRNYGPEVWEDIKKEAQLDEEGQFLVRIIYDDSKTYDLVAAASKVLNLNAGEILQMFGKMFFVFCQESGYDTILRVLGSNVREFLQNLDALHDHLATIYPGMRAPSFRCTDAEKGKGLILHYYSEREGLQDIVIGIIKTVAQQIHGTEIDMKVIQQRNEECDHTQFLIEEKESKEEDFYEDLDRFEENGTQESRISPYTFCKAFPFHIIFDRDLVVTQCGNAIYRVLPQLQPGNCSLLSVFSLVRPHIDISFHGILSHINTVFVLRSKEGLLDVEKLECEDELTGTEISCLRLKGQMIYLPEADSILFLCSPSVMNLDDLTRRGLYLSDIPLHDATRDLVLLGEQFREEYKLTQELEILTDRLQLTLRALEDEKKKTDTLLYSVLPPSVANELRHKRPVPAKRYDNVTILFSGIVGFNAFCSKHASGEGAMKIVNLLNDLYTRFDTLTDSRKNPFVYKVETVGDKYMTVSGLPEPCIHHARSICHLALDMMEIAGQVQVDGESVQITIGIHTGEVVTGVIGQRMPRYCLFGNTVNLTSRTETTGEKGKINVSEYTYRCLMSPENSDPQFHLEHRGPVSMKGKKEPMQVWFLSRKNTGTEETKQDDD
procedureDetails: CHO cellular assay (cGMP production, Cisbio cGMP HTRF kit)
Assay type: cell-based
runConditions: CHO GUCY clone 8E10, cGMP production, assay buffer with 1 mM IBMX and 20 uM ODQ, 1 h room temperature; minimum quantification limit 0.5 nM (listed 0.5 nM means ≤0.5 nM); read-out: EC50
quantityName: pEC50
pEC50 is defined as minus the log10 of a concentration measured in mol/L.

Solved entries (count: 3):
{"compound": "Cc1cc2c(c(-c3cccc(-n4ncc(C(=O)O)c4C(F)(F)F)n3)c1)C(Nc1ccc(C3CCN(C(=O)C4CC4)CC3)cc1C)CC2 (racemic) [Example 11-1]", "quantityName": "pEC50", "testValue": 9.00}
{"compound": "Cc1cc(C2CCN(C(=O)C3CC3)CC2)ccc1NC1CCc2cccc(-c3cccc(-n4ncc(C(=O)O)c4C)c3)c21 (single isomer, unassigned; (-)) [44 (−)]", "quantityName": "pEC50", "testValue": 8.00}
{"compound": "Cc1cc(C2CCN(C(=O)C3CC3)CC2)cnc1NC1CCc2cccc(-c3cccc(-n4ncc(C(=O)O)c4C)n3)c21 (racemic)", "quantityName": "pEC50", "testValue": 8.22}

Input Cc1cc(C2CCN(c3ccccn3)CC2)ccc1NC1CCc2cccc(-c3cccc(-n4ncc(C(=O)O)c4C)n3)c21 (racemic) . Output pEC50: 9.00

Input CCOC(=O)N1CCC(c2ccc(O[C@H]3CCc4cccc(-c5cccc(-n6ncc(C(=O)O)c6CC)n5)c43)cc2CC)CC1 . Output pEC50: 9.00

Input Cc1cc(C2CCN(C(=O)CC3CC3)CC2)ccc1NC1CCc2cccc(-c3cccc(-n4ncc(C(=O)O)c4C)n3)c21 (single isomer, unassigned; (-)) [(−)-46-3] . Output pEC50: 6.52

Input CCc1cc(NC2CCc3cccc(-c4cccc(-n5ncc(C(=O)O)c5CC)n4)c32)ccc1C1CCN(C(=O)C2CC2)CC1 (single isomer, unassigned; (-)) [(−)-53-1] . Output pEC50: 7.68

Input Cc1cc(C2CCN(C(=O)C3CC3)CC2)ccc1OC1CCc2cccc(-c3cccc(-n4ncc(C(=O)O)c4C(F)(F)F)c3)c21 (single isomer, unassigned; (-)) [Example (−)-1. b)] . Output pEC50: 8.00

---

# Lookup of reported log10(EC50) keyed by entry
systemUnderTest: soluble guanylate cyclase (human GUCYA3 and GUCYB3) overexpressed in CHO cells (Homo sapiens (Human), UniProt Q02108+Q02153)
procedureDetails: CHO cellular assay (cGMP production, Cisbio cGMP HTRF kit)
Assay type: cell-based
runConditions: CHO GUCY clone 8E10, cGMP production, assay buffer with 1 mM IBMX and 20 uM ODQ, 1 h room temperature; minimum quantification limit 0.5 nM (listed 0.5 nM means ≤0.5 nM); read-out: EC50
Note the log scale: values are log10 of EC50 expressed in nM.

Solved entries (count: 4):
{"compound": "CCc1c(C(=O)O)cnn1-c1cccc(-c2cccc3c2C(Nc2ccc(C4CCN(CC(F)(F)F)CC4)cc2C)CC3)n1 (stereo not drawn)", "log10(EC50)": 0.15}
{"compound": "CCc1nc(NC2CCc3cccc(-c4cccc(-n5ncc(C(=O)O)c5CC)n4)c32)ccc1C1CCN(C(=O)C2CC2)CC1 (single isomer, unassigned; (-)) [Example 63b]", "log10(EC50)": 1.78}
{"compound": "CCc1c(C(=O)O)cnn1-c1cccc(-c2cccc3c2C(Cc2ccc(C4CCN(C(=O)OC)CC4)cc2C)CC3)n1 (single isomer, unassigned; (-)) [Example 42. b). (−)]", "log10(EC50)": 1.97}
{"compound": "COCCOC(=O)N1CCC(c2ccc(NC3CCc4cccc(-c5cccc(-n6ncc(C(=O)O)c6C)n5)c43)c(C)c2)CC1 (stereo not drawn)", "log10(EC50)": 0.00}

Moving on to the next compound.
Input CCc1c(C(=O)O)cnn1-c1cccc(-c2cccc3c2N(Cc2ccc(C4CCN(C(=O)C5CC5)CC4)cc2C)CC3C)n1 (single isomer, unassigned; (+)) [(+)-20-2] . Output log10(EC50): 1.00
